# Tested on: ACHN renal
# PROTOCOL NOTES: NCI tumour cell line growth inhibition, 48 h
Each item that follows carries a reported TGI.

Worked cases, TGI given:
                                   molecule  subject_of_test  quantity_name  obs_value
0   Cc1cc(-c2ccccc2)nc(Nc2cc3ccccc3[nH]2)n1       ACHN renal            TGI   > 100 µM
1  [N-]=[N+]=C(C(=O)CN1CCCC1=O)S(=O)(=O)c1ccccc1       ACHN renal            TGI   > 100 µM
2  COC(=O)CC[C@@H](C)[C@H]1CC[C@H]2[C@@H]3CC[C@@H]4C[C@H](O)CC[C@]4(C)[C@H]3CC[C@]12C       ACHN renal            TGI    39.8 µM

Consider now this further molecule.
Exercise: # get_value(readout='TGI', item= `COC(=O)C1=C(C)NC(C)=C(C(=O)OC)C1c1cccc(/[N+]([O-])=C/c2ccccc2)c1` )
Solution: 31.6 µM

====

# Tested on: MDA-MB-231 breast
# PROTOCOL NOTES: NCI tumour cell line growth inhibition, 48 h
QUANTITY NAME: log10 TGI (log10 of the value in µM)
A difference of one corresponds to tenfold TGI; all values are log10 with TGI in µM.

In [3]: df
Out[3]:
                                   compound  obs_value
0    Cc1ccc2sc3c(NCCCN)nc4ccccc4c3c(=O)c2c1       0.52
1  Cc1ccsc1C(NC(=O)c1ccccc1)c1cc(Cl)c2cccnc2c1O (stereo not given)       1.27

Consider now this further compound.
Exercise: # get_value(readout='log10 TGI', item= `Nc1nc(N)c2c(ccc3c2ccn3Cc2cccc([N+](=O)[O-])c2)n1` )
Solution: 0.42

====

# System: HCT-116 colon
# PROTOCOL NOTES: NCI tumour cell line growth inhibition, 48 h
Each item that follows carries a reported TGI.
The response must be a number in µM with no trailing unit.

STRUCTURE STRING	TGI / µM
COc1cc2ncnc(Oc3ccc(NC(=O)Nc4ccc(CN5CCOCC5)c(C(F)(F)F)c4)c4ccccc34)c2cc1OC	2.55
CC(C)[C@@H](C(=O)O[C@@H]1/C=C/C(=O)O[C@@H](C)CCC/C=C/[C@@H]2C[C@H](O)C[C@H]21)N(C)C	64.4
COC(=O)[C@]1(C)CCC[C@@]2(C)C3=C(CC[C@H]12)C[C@@H](CC(OC(C)=O)OC(C)=O)[C@@H](C)C3	18.9

Consider now this further compound.
Exercise: # get_value(readout='TGI', item= `C[C@]12CC[C@H]3[C@@H](CC[C@]4(O)C[C@@H](O)CC[C@]34C=O)[C@@]1(O)CC[C@@H]2C1=CC(=O)OC1` )
Solution: 0.595

====

# Test system: HS 578T breast
# PROTOCOL NOTES: NCI tumour cell line growth inhibition, 48 h; in the data active means GI50 below about 0.43 µM; inactive means the rest
Answer with one of the outcomes given here: 1.0 (active), 0.0 (inactive)

Here are 3 molecules together with their reported answers.
In [3]: df
Out[3]:
                                   molecule  label_class
0  NS(=O)(=O)c1ccc(-n2nc3c(c2-c2cccs2)Cc2ccccc2-3)cc1          0.0
1  CCOC(=O)N1CCC(N=C2CSc3nnc(-c4cc(C(F)(F)F)cc(C(F)(F)F)c4)n3N2)CC1          0.0
2  CC1=CC2(C)/C=C(C)/C=C\CC(O)/C=C3/C=CC(=C4C(=O)OC2(CC1C)C4=O)OC3 (centres undefined)          0.0

Exercise: Look up the recorded call for `N#C/C(=C\c1ccc[nH]1)c1cc(-c2ccc(Cl)cc2)nn1-c1ccccc1` in this test.
Solution: 0.0

Exercise: Would you kindly repeat that for Oc1c(C(c2ccc(F)cc2)N2CCCCC2)ccc2cncnc12 (centres undefined) ?
Solution: 0.0

Exercise: Would you kindly repeat that for `Cn1nc(C(F)(F)F)cc1-c1cc(Cl)c(OCc2ccc(Cl)cc2)c(-c2ccc(Cl)c(C(F)(F)F)c2)c1O` ?
Solution: 0.0

Exercise: Would you kindly repeat that for `COc1cc2ncnc(Oc3ccc(NC(=O)Nc4ccc(CN5CCOCC5)c(C(F)(F)F)c4)c4ccccc34)c2cc1OC` ?
Solution: 0.0

Exercise: Would you kindly repeat that for `C[C@@H]1CC[C@@H]2[C@@H]1[C@H](OC(=O)/C=C/C1CCCCC1)[C@]1(C3CCCCC3)C[C@@H](OC(=O)CO)[C@@]2(C)O1` ?
Solution: 1.0

Exercise: Would you kindly repeat that for `Cc1cc(OCc2ccc(C(F)(F)F)cc2)c2c(c1)C(=O)C=C(NCCN1CCCC1)C2=O` ?
Solution: 0.0

====

# System: SN12C renal
# PROTOCOL NOTES: NCI tumour cell line growth inhibition, 48 h
Each item that follows carries a reported TGI.
The response must be a number in µM with no trailing unit.

Worked cases, TGI given:
>>> df
                                   compound  quantity_name  obs_value
0  CSc1ccc(N2C(=O)C3c4[nH]c5ccccc5c4C4CCC(C(C)(C)C)CC4C3C2=O)cc1 (stereo unspecified)            TGI       35.9
1  Oc1c(C(Nc2ccccn2)c2ccccc2)ccc2cccnc12 (stereo unspecified)            TGI       17.4
2            Nc1ccc(C#Cc2ccccc2C#CCCCCO)cc1            TGI         20
3  COc1cccc(N2CC(O)=C(c3nc4ccccc4s3)C2=N)c1            TGI       5.63
4  O=C(Nc1ccc(Cl)c(Cl)c1)c1ccc(NC2=C(Cl)C(=O)N(Cc3ccccc3)C2=O)cc1            TGI       25.9
5  Nc1nc(N)c2c(ccc3c2ccn3Cc2cccc([N+](=O)[O-])c2)n1            TGI       1.65

Consider now this further compound.
Exercise: # get_value(readout='TGI', item= `C[C@@H]1CC[C@@H]2[C@@H]1[C@H](OC(=O)/C=C/C1CCCCC1)[C@]1(C3CCCCC3)C[C@@H](OC(=O)CO)[C@@]2(C)O1` )
Solution: 15.1

====

# Test system: DMS 273 small cell lung
# PROTOCOL NOTES: NCI tumour cell line growth inhibition, 48 h
QUANTITY NAME: TGI

COMPOUND	SUBJECT OF TEST	OBS VALUE
CCC(=O)OCOc1ccc(/C=C2\CCC(CN(C)C)C2=O)cc1 (stereo unspecified)	DMS 273 small cell lung	15.2 µM
O=S(=O)(O)c1cc(S(=O)(=O)O)c2cc(N=Nc3ccc(N=Nc4ccc(/C=C/c5ccc(N=[N+]([O-])c6ccc(/C=C/c7ccc(N=Nc8ccc(N=Nc9ccc%10cc(S(=O)(=O)O)cc(S(=O)(=O)O)c%10c9)cc8)cc7S(=O)(=O)O)c(S(=O)(=O)O)c6)cc5S(=O)(=O)O)c(S(=O)(=O)O)c4)cc3)ccc2c1	DMS 273 small cell lung	> 100 µM
CC(C)N1CC2CC(CN(C(=O)c3ccc(Cl)cc3)C2)C1	DMS 273 small cell lung	> 100 µM
Clc1ccc(C2SCc3nc4ccccc4n32)cc1 (stereo unspecified)	DMS 273 small cell lung	36.2 µM
O=C1c2ccccc2C(=O)N1CC#CCO	DMS 273 small cell lung	> 100 µM
COc1ccc(C(C2=C(O)CC(C)OC2=O)C2=C(O)CC(C)OC2=O)cc1 (stereo unspecified)	DMS 273 small cell lung	> 100 µM

Exercise: Write down the reported TGI of `CC1(C)CC(=O)C(CC2C(=O)CCCC2=O)C(=O)C1` , test system: DMS 273 small cell lung.
Solution: > 100 µM

Exercise: Would you kindly repeat that for CSc1ccc(N2C(=O)C3c4[nH]c5ccccc5c4C4CCC(C(C)(C)C)CC4C3C2=O)cc1 (stereo unspecified) ?
Solution: 25.3 µM

Exercise: Would you kindly repeat that for OC1OCC(COc2cc(Cl)c(Cl)cc2Cl)OC1O (stereo unspecified) ?
Solution: > 100 µM

Exercise: Would you kindly repeat that for CCCCCCCCCC1CC(=O)OC2=C1C(=O)CCC2 (stereo unspecified) ?
Solution: > 100 µM

Exercise: Would you kindly repeat that for C=CCC1(CN(C)C)CC/C(=C\c2ccc3c(c2)OCO3)C1=O (stereo unspecified) ?
Solution: > 100 µM

====

# System: SF-295 CNS
# PROTOCOL NOTES: NCI tumour cell line growth inhibition, 48 h
QUANTITY NAME: TGI (µM)
The response must be a number in µM with no trailing unit.

Worked cases, TGI given:
>>> df
                                   compound  quantity_name  obs_value
0  O=C1OC(OC/C(Br)=C(\Br)COC2OC(=O)C(Cl)=C2Cl)C(Cl)=C1Cl (stereo unspecified)            TGI       34.7
1  CCN(CC)CCOc1nc2ccccc2c2c1-c1ccc(OC)cc1C2=O            TGI       12.4
2  COc1cc2[nH]c3c(c2cc1OC)CCN[C@@]31CC[C@@]2(CC3c4c(cc(OC)c(O)c42)CCN3C)C[C@@H]1OC (stereo partly specified)            TGI       47.3
3  O=C(Nc1ccc(Br)cc1)C(=O)C(C(=O)c1ccc(Cl)c(Cl)c1)C1OC(=O)c2ccccc21 (stereo unspecified)            TGI       65.3
4  c1ccc2c(N=NSc3ncnc4nc[nH]c34)c3ccccc3nc2c1            TGI       9.63

Exercise: # get_value(readout='TGI', item= `CCN1CCN(c2ccc(NC(=O)Nc3nc4ccc(-c5ccccc5OC)cc4s3)cc2)CC1` )
Solution: 3.09

Values compiled from PubChem BioAssay (NCI).
